molecular target: T1, human HER3 receptor (human, UniProt P21860 20-643); experiment: method not named there (Example 1: HER3 ELISA and confocal microscopy on MCF-7 cells)
T1 construct: also called ErbB3
T1 sequence (P21860 20-643 limits assumed): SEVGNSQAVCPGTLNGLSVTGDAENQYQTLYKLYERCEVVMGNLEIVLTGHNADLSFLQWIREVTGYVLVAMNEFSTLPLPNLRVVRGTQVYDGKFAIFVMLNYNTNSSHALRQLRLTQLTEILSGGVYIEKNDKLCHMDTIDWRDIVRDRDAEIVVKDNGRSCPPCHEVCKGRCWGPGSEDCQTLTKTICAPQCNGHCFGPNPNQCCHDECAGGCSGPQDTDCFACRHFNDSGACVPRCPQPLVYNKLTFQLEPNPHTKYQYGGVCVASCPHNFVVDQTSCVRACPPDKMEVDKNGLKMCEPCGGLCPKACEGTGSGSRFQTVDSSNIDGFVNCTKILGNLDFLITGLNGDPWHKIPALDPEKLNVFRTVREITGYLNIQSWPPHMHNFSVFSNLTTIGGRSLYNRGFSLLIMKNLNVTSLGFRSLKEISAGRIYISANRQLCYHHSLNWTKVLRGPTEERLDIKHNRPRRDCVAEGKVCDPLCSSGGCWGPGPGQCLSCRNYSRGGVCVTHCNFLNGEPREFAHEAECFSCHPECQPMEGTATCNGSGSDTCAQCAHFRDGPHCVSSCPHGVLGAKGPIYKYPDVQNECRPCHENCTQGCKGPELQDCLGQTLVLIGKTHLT
Measured Quantity: binding result

antibody 5038 (antibody, human IgG1, kappa, V domains shown, Chimeric: murine variable regions, human kappa constant region, expressed as full-length IgG) VH: EVKLVESGPGLVKPSQSLSLTCSVTGYSITSGFYWTWIRQFPGNKLEWMGFISYDGSNNYNPSLKNRISITRDTSKNQFFLKLNSVTTEDTATYYCARGGGYYGNLFDYWGQGTTLTVSS VL: DIVMTQTTSSLSASLGDRVTISCRPSQDISNYVNWFQQKPGGTVKLLIFHTSRLHSGVPSRFSGSGSGTDYSLTISTLEQEDIAIYFCQQGITLPWTFGGGTKLEIKR	binds
antibody 5106 (antibody, human IgG1, kappa, V domains shown, Chimeric: murine variable regions, human kappa constant region, expressed as full-length IgG) VH: EVKLVESGGDLVKPGESLKLSCAASGFTFSSFAMSWVRQTPEKRLEWVATISDGGSHLYYPDNVKGRFTISRDNAKNNLYLQMSHLKSEDTAMYYCARGILDYWGQGTSVTVSS VL: DIVMTQATSSLSASLGDRVTISCSASQDINNYLNWYQQKPDGTIKLLIYYTSSLHSGVPSRFSGSGSGTDYSLTISNLEPEDIATYYCQQYSRIPYTFGGGTKLEIKR	binds
